Target chain: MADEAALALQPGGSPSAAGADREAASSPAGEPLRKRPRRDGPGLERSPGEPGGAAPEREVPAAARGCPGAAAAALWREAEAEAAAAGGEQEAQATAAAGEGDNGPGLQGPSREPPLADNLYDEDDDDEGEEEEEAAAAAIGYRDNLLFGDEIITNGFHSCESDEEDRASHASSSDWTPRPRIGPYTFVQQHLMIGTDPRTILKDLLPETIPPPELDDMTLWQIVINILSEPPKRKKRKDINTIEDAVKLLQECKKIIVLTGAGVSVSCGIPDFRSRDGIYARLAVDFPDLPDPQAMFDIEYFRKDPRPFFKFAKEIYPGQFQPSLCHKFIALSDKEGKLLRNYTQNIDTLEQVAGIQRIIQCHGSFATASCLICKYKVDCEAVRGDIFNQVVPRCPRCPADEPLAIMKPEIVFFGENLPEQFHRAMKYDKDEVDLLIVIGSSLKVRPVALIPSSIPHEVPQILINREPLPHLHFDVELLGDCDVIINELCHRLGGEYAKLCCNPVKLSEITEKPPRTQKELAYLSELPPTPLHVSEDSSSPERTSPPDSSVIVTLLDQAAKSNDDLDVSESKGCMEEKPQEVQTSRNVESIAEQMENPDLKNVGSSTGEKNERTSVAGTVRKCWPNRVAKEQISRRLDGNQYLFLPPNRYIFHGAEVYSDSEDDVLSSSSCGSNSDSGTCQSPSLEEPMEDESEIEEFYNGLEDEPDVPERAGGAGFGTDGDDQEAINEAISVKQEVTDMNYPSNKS
Experimental Endpoint: IC50 (µM)
Only the number, expressed in µM, is required.

Indicate its recorded IC50; the molecule in question is COC(=O)[C@H](C)NC(=O)[C@H](C)NC(=O)[C@H](CCCCNC(C)=S)NC(=O)c1ccc([N+](=O)[O-])cc1
6.5
